The measured values listed here are drawn from patent US20080280837A1.

- system_tested: Human SST5 somatostatin receptor (SSTR5) (Homo sapiens, UniProt P35346)
- Construct: expressed in transfected cells; host or cells: HEK-293 EBNA
- Sequence (P35346 whole entry): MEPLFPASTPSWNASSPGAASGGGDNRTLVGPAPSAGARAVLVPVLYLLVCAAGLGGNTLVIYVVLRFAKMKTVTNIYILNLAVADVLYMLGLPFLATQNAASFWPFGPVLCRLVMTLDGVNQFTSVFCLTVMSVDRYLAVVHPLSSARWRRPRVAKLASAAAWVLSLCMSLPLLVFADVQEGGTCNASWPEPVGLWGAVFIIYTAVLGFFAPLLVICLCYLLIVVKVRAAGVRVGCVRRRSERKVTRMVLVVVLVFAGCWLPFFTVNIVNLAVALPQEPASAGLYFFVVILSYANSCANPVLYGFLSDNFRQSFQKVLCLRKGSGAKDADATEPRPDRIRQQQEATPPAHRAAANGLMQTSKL
- method_summary: Filter plate assay for SST5 receptor, displacement of [125I]SST-14
- Type: binding
- particulars: 0.5 uM
- Experimental: Receptor membrane preparations containing the desired cloned receptor (for example cloned human somatostatin receptor subtype 5, SSTR5) and radio-labeled ligand (for example 3-[^125I]iodotyrosyl^11 Somatostatin-14)) were diluted at the concentration required for testing and according to the specific parameters associated with the selected receptor-ligand combination, including receptor Bmax, ligand Kd and any other parameters necessary to optimize the experimental conditions. […]
# maps each entry to its SSTR5 Inhib 0.5 uM % (inhibition of binding of SST-14 to SSTR5)
measured_quantity: SSTR5 Inhib 0.5 uM % (inhibition of binding of SST-14 to SSTR5) (%)

| molecule | result_value |
| --- | --- |
| COC[C@H]1OC(OCc2ccc(-c3ccccc3)cc2)[C@H](NC(=O)CCCNC(=N)N)[C@@H](OCc2ccc(-c3ccccc3)cc2)[C@@H]1O (stereo partly drawn) [Compound 130] | 40 |
| COC[C@H]1OC(OCc2ccc(-c3ccccc3)cc2)[C@H](NC(=O)CCCNC(=N)N)[C@@H](OCc2ccc(-c3ccccc3)cc2)[C@@H]1O (stereo partly drawn) [Compound 77] | 50 |
| COC[C@H]1OC(OCc2ccc(Cl)cc2)[C@H](NC(=O)CCCN)[C@H](OCc2ccc(-c3ccccc3)cc2)[C@@H]1O (stereo partly drawn) | 74 |
